# tested-target: Delta-type opioid receptor (Mus musculus)
# Sequence (P32300 whole entry): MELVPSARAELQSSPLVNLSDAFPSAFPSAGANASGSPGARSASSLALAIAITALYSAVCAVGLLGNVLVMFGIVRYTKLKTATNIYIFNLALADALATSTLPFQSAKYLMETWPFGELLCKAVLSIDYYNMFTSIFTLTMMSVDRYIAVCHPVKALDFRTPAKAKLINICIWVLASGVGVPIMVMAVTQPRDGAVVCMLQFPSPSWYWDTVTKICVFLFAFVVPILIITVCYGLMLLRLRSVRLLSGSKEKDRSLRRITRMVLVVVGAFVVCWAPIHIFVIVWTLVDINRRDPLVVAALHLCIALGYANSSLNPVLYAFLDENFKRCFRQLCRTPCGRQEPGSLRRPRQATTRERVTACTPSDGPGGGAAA
# experiment-notes: Inhibitory concentration required against biological activity of Opioid receptor delta 1 from mouse vas deferens (MVD)
Quick list: pIC50 per entry.
# pIC50 = -log10(concentration in molar units)

Please review the following examples before continuing.
Query pIC50 for C[C@H](c1ccccc1)[C@H](NC(=O)CNC(=O)[C@@H](C)NC(=O)[C@@H](N)Cc1ccc(O)cc1)C(=O)NNC(=O)[C@@H](NC(=O)CNC(=O)[C@@H](C)NC(=O)[C@@H](N)Cc1ccc(O)cc1)[C@H](C)c1ccccc1 (stereo in doubt) 6.74

Query pIC50 for CC(NC(=O)[C@@H](N)Cc1ccc(O)cc1)C(=O)NCC(=O)N[C@H](C(=O)NNC(=O)[C@@H](NC(=O)CNC(=O)C(C)NC(=O)[C@@H](N)Cc1ccc(O)cc1)[C@@H](C)c1ccccc1)[C@@H](C)c1ccccc1 (single isomer, unassigned) 6.92

Query pIC50 for C[C@@H](NC(=O)[C@@H](N)Cc1ccc(O)cc1)C(=O)NCC(=O)N[C@@H](Cc1ccc2ccccc2c1)C(=O)NNC(=O)[C@H](Cc1ccc2ccccc2c1)NC(=O)CNC(=O)[C@@H](C)NC(=O)[C@@H](N)Cc1ccc(O)cc1 8.03

Query pIC50 for C[C@@H](NC(=O)[C@@H](N)Cc1ccc(O)cc1)C(=O)NCC(=O)N[C@@H](Cc1cccc2ccccc12)C(=O)NNC(=O)[C@H](Cc1cccc2ccccc12)NC(=O)CNC(=O)[C@@H](C)NC(=O)[C@@H](N)Cc1ccc(O)cc1 7.77

Here is the next item to consider.
Query pIC50 for C[C@@H](NC(=O)[C@@H](N)Cc1ccc(O)cc1)C(=O)NCC(=O)N[C@@H](Cc1c(F)c(F)c(F)c(F)c1F)C(=O)NNC(=O)[C@H](Cc1c(F)c(F)c(F)c(F)c1F)NC(=O)CNC(=O)[C@@H](C)NC(=O)[C@@H](N)Cc1ccc(O)cc1 7.60
